Task for the reader: assign each of the following compounds its reported composite z-score.
experimental_details: small-molecule binders of probe aLefty1, primary screen, biochemical, small-molecule microarray, 635/667 nm fluorescence (AID 1153);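 also: score merges spot fluorescence with signal-to-noise ratio from the scanned slide images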
setup_conditions: higher = more signal
Numbers only.

These solved cases illustrate the format of a correct answer.
CC(C)C[C@@H]1NC(=O)[C@@H]2C[C@H](C(=O)NCCCCCC[N+](C)(C)C)[C@H](c3cccc(OCCO)c3)N2C1=O : 0.22
CCN(CC)c1ccc(N2CC=CC34O[C@@H]5C=CCCOC(=O)C5[C@H]3C(=O)N(CCO)[C@@H]4C2=O)cc1 (some centres not stated) : -0.155
COC(=O)C1=CC(CCCO)=CC(c2ccc(CN3CCCC3)cc2)N(Cc2cc3c(cc2Br)OCO3)C=C1C(=O)OC (configuration not stated) : 0.744
[N-]=[N+]=NCc1ccccc1[C@@H]1OC(c2ccc(OCCCO)cc2)=N[C@]1(Cc1ccccc1)C(=O)NCCN1CCOCC1 : 0.345
CCOC(=O)C[C@H]1[C@H](OC(=O)c2ccc(-c3ccccc3)cc2)[C@@H](NC(=O)CC(C)C)c2cc(OCCCO)ccc2N1C(=O)c1ccccc1 : 0.113

Answer for every listed entry: what is its composite z-score? The entries follow.
1. CCCCCN1CC=CC23O[C@@H]4/C=C\CCC(C)OC(=O)C4[C@H]2C(=O)N(CCCCCCO)[C@@H]3C1=O (some centres not stated)
2. CCCCCN1CC=CC23O[C@@H]4C=CCOC(=O)[C@@H]4[C@H]2C(=O)N(CCO)[C@@H]3C1=O (some centres not stated)

[0.0378, -0.25]
